Test system: HCC1569
EXPERIMENT NOTES: H1.0 immunofluorescence intensity relative to DMSO (% of DMSO); higher = stronger H1.0 induction, active = 140 or more
ASSAY CONDITIONS: concentration: 10 µM; 24 h
Response key: Condition met means H1.0 immunofluorescence intensity >= 100; Condition not met means H1.0 immunofluorescence intensity < 100.

## Input Tell me whether H1.0 immunofluorescence intensity is at least 100 here: CN(C)C(=O)Oc1cc(OC(=O)N(C)C)cc(C(O)CNC(C)(C)C)c1 (stereo not drawn)
## Output Condition met

## Input Reported H1.0 immunofluorescence intensity reaches at least 100 for Cc1cccc(C)c1NC1=NCCCS1.Cl [Xylazine hydrochloride] ?
## Output Condition met

## Input Check the entry Cc1cc(O)c2c(=O)c3c(O)cc(O)c4c5c(O)cc(O)c6c(=O)c7c(O)cc(C)c8c1c2c(c34)c(c78)c65 : does H1.0 immunofluorescence intensity equal or exceed 100?
## Output Condition not met

## Input Could you verify whether the entry NC(C(=O)O)c1cc(=O)[nH]o1 (racemic) shows H1.0 immunofluorescence intensity of no less than 100?
## Output Condition not met

## Input Threshold query (H1.0 immunofluorescence intensity >= 100) on COC1=CC2C3Cc4ccc(OC)c(O)c4C2(CCN3C)CC1=O (stereo not drawn)
## Output Condition not met

## Input Is H1.0 immunofluorescence intensity at least 100? Consider Cl.O=C(O)Cc1cnc[nH]1 [Imidazole-4-acetic acid hydrochloride]
## Output Condition not met

## Input Is H1.0 immunofluorescence intensity for NCCc1c[nH]c2ccc(C(N)=O)cc12.O=C(O)C=CC(=O)O [5-Carboxamidotryptamine maleate] at or above 100?
## Output Condition not met

## Input Could you verify whether the entry CC1OC(OC2CC(O)C3(CO)C4C(O)CC5(C)C(C6=CC(=O)OC6)CCC5(O)C4CCC3(O)C2)C(O)C(O)C1O (stereo not drawn) [Ouabain] shows H1.0 immunofluorescence intensity of no less than 100?
## Output Condition met

----------
Tested on: TDF
EXPERIMENT NOTES: cell number relative to DMSO (% of DMSO); higher = more cells (less growth inhibition / toxicity)
ASSAY CONDITIONS: concentration: 10 µM; 24 h
Mark criterion met for reported cell number of 100 or greater; mark criterion not met for anything smaller.

CN1CC(C(=O)NC2(C)OC3(O)C4CCCN4C(=O)C(Cc4ccccc4)N3C2=O)CC2c3cccc4[nH]cc(c34)CC21.CS(=O)(=O)O (stereo not drawn) [Dihydroergotamine methanesulfonate] :: criterion met

## Input Determine whether this molecule has cell number no lower than 100: CN(C)C(=O)Oc1ccc[n+](C)c1.[Br-] [Pyridostigmine bromide]
## Output criterion met

## Input Is the recorded value of cell number equal to or greater than 100 for this molecule? CN1C2CCC1CC(OC(=O)C(CO)c1ccccc1)C2 (stereo not drawn) [Atropine]
## Output criterion met

## Input Could you please find out whether CC1CC(C)C(=O)C(C(O)CC2CC(=O)NC(=O)C2)C1 (stereo not drawn) [Cycloheximide] has cell number that meets 100 or exceeds it?
## Output criterion not met

## Input Entry CS(=N)(=O)CCC(N)C(=O)O (stereo not drawn) : is its cell number no less than 100?
## Output criterion not met

## Input Does cell number meet or surpass 100 for CN1CC(CNC(=O)OCc2ccccc2)CC2c3cccc4c3c(cn4C)CC21 (stereo not drawn) ?
## Output criterion met

## Input Decide: is the reported value of cell number for Cl.Clc1ccc(N2CCN(Cc3c[nH]c4ncccc34)CC2)cc1 [L-745,870 hydrochloride] equal to or greater than 100?
## Output criterion not met

## Input Quick check, cell number >= 100? CCC1(O)C(=O)OCc2c1cc1n(c2=O)Cc2cc3ccccc3nc2-1 [(S)-(+)-Camptothecin]
## Output criterion not met

----------
Test system: HCC1569
EXPERIMENT NOTES: H1.0 immunofluorescence intensity relative to DMSO (% of DMSO); higher = stronger H1.0 induction, active = 140 or more
ASSAY CONDITIONS: concentration: 10 µM; 24 h
Overview of reported H1.0 immunofluorescence intensity across a group of molecules:
Answer with a number only.

## Input For the molecule shown here, Cl.Cl.c1ccc(CCCN2CCN(CCOC(c3ccccc3)c3ccccc3)CC2)cc1 , give the reported H1.0 immunofluorescence intensity.
## Output 102

## Input For Cc1nccc2c1[nH]c1ccccc12 , what is its reported H1.0 immunofluorescence intensity?
## Output 96.7

----------
System: TDF
EXPERIMENT NOTES: cell number relative to DMSO (% of DMSO); higher = more cells (less growth inhibition / toxicity)
ASSAY CONDITIONS: concentration: 10 µM; 24 h
Reported values of cell number for individual entries
Answer using only a numeral; do not append any unit.

C=C1C2CC3(C1O)C1CC4C5(C)CCC(O)C4(C1N(CC)C5)C3CC2=O (centres undefined) :: 108
NCC(CC(=O)O)c1ccc(Cl)cc1 (racemic) :: 112
C=CCN1CC(C(=O)N(CCCN(C)C)C(=O)NCC)CC2c3cccc4[nH]cc(c34)CC21 (centres undefined) :: 102
Cl.c1ccc2c(c1)OCC(C1=NCCN1)O2 (centres undefined) [Idazoxan hydrochloride] :: 98.8
CCCN1CCCC(c2cccc(C#N)c2)C1.Cl (stereo not drawn) [S(-)-DS 121 hydrochloride] :: 96.1

## Input Entry Cc1cc2c(C(C)C)c(O)c(O)c(C=O)c2c(O)c1-c1c(C)cc2c(C(C)C)c(O)c(O)c(C=O)c2c1O has what cell number?
## Output 99.6

## Input Given O=c1[nH]c2ccccc2n1CCCN1CCC(n2c(=O)[nH]c3cc(Cl)ccc32)CC1 , state its recorded cell number.
## Output 98.7

## Input Please look up its cell number: Fc1cc(F)c2c(c1)C1C=CCC1C(c1cccnc1)N2 (centres undefined)
## Output 52.7

## Input cell number lookup needed for CN1CC(NS(=O)(=O)N(C)C)CC2c3cccc4c3c(cn4C)CC21 (centres undefined) , thanks.
## Output 103

----------
Tested on: HCC1569
EXPERIMENT NOTES: cell number relative to DMSO (% of DMSO); higher = more cells (less growth inhibition / toxicity)
ASSAY CONDITIONS: concentration: 10 µM; 24 h
ENDPOINT NAME: cell number
// keep it numeric: no unit symbol after the value

Record excerpt, results attached:
Cl.N[C@@H](CCl)C(=O)O [beta-Chloro-L-alanine hydrochloride] :: 101
CCCCCCCCCCCCCCC(Br)C(=O)O (centres undefined) [2-bromohexadecanoic acid] :: 109
C[N+]1(C)C2CCC1CC(OC(=O)c1c[nH]c3ccccc13)C2.[I-] (centres undefined) [3-Tropanylindole-3-carboxylate methiodide] :: 100

# next compound below
## Input Given the entry COc1ccc2c(c1OC)C(=O)OC2C1c2cc3c(cc2CCN1C)OCO3 (centres undefined) , what cell number was observed with HCC1569?
## Output 107

----------
Each entry below carries its recorded H1.0 immunofluorescence intensity.
Tested on: TDF
EXPERIMENT NOTES: H1.0 immunofluorescence intensity relative to DMSO (% of DMSO); higher = stronger H1.0 induction, active = 120 or more
ASSAY CONDITIONS: concentration: 10 µM; 24 h

These recorded examples may help you get a feel for the data.
CN1C2CCC1CC(OC(=O)C(CO)c1ccccc1)C2.CN1C2CCC1CC(OC(=O)C(CO)c1ccccc1)C2.O=S(=O)(O)O (stereo unspecified) [Atropine sulfate] :: 91.7 (inactive)
Cc1sc2ccccc2c1CC1=NCCN1.O=C(O)C(=O)O [Benazoline oxalate] :: 92 (inactive)
CN1CC(NS(=O)(=O)N(C)C)CC2c3cccc4c3c(cn4C)CC21 (stereo unspecified) :: 93.4 (inactive)
CNC(=O)Oc1ccc2c(c1)C1(C)CCN(C)C1N2C.CNC(=O)Oc1ccc2c(c1)C1(C)CCN(C)C1N2C.O=S(=O)(O)O (stereo unspecified) [Physostigmine sulfate] :: 90.4 (inactive)
CCCCCCCCCCCCCC(=O)OC1C(C)C2(O)C(C=C(CO)CC3(O)C(=O)C(C)=CC32)C2C(C)(C)C12OC(C)=O (stereo not drawn) [4alpha-Phorbol-12-myristate-13-acetate] :: 95.6 (inactive)

// below: H1.0 immunofluorescence intensity requested for another compound
## Input Please give the measured H1.0 immunofluorescence intensity for this compound: CC1CCC2C(C)C3C(CC4C5CC=C6CC(OC7OC(CO)C(O)C(OC8OC(CO)C(O)C(O)C8O)C7OC7OC(C)C(O)C(O)C7O)CCC6(C)C5CCC43C)N2C1 (racemic)
## Output 97.4 (inactive)

----------
Overview of reported H1.0 immunofluorescence intensity across a group of molecules:
Test system: TDF
EXPERIMENT NOTES: H1.0 immunofluorescence intensity relative to DMSO (% of DMSO); higher = stronger H1.0 induction, active = 120 or more
ASSAY CONDITIONS: concentration: 10 µM; 24 h
Lab note: record just the number, no unit beside it.

Recorded H1.0 immunofluorescence intensity, per entry:
CC1(CO)C(O)CCC2(C)C1CCC1CC3CC12CCC3(O)CO (stereo not drawn) :: 108
COc1ccc2[nH]cc(CCN)c2c1.Cl [O-Methylserotonin hydrochloride] :: 89.1
CN1CC(C(=O)NC2(C)OC3(O)C4CCCN4C(=O)C(Cc4ccccc4)N3C2=O)CC2c3cccc4[nH]cc(c34)CC21.CS(=O)(=O)O (stereo not drawn) [Dihydroergotamine mesylate] :: 92.6
CC=C1CC(C)C(C)(O)C(=O)OCC2=CCN3CCC(OC1=O)C23 (stereo not drawn) :: 108
N#CC(C#N)=Cc1ccc([N+](=O)[O-])c(O)c1 :: 102

## Input Any idea what its H1.0 immunofluorescence intensity is? The molecule is NC(=NCCCC(N)C(=O)O)N[N+](=O)[O-] (stereo not drawn)
## Output 89.6

## Input For CN[C@@H]1Cc2cccc3[nH]c(=O)n(c23)C1.O=C(O)C=CC(=O)O , what is its reported H1.0 immunofluorescence intensity?
## Output 92.5

## Input # lookup: H1.0 immunofluorescence intensity of CCCN(CCC)C1CCc2c(F)ccc(O)c2C1.Cl (stereo not drawn) [S(-)-UH-301 hydrochloride]
## Output 98.7
